Reference for the values: paper PMC12304311

molecular target: EGFR L858R/T790M/C797S kinase (EGFR^LTC) (Homo sapiens, UniProt P00533, C797S/L858R/T790M); test: biochemical; design: HTRF KINASE-TK inhibition assay, EGFR L858R/T790M/C797S, ATP about Km, dose response
Sequence (P00533 669-1210 T790M/C797S/L858R limits assumed): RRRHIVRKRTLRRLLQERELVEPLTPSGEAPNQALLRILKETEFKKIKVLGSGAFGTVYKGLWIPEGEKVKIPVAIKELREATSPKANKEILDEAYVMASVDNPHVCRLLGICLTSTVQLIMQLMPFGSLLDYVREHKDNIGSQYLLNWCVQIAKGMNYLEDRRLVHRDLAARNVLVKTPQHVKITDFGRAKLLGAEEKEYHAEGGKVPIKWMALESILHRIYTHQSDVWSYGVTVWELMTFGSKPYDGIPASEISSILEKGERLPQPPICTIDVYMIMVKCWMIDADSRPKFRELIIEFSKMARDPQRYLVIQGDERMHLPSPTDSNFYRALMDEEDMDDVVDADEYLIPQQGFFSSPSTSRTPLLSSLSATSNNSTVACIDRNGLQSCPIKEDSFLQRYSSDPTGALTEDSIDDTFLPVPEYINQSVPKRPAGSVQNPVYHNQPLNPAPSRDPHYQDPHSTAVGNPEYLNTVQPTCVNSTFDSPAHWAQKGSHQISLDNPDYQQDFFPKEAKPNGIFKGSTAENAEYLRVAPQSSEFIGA
measurementKind: IC50

Please review the following examples before continuing.
COc1cc2nccc(Oc3ccc(NC(=O)c4cn(C(C)C)c(=O)n(-c5ccc(F)cc5)c4=O)cc3F)c2cc1OC 2.74 µM
CN(C)CC#Cc1ccc(OCCCc2sc(N3CCc4cccc(C(=O)Nc5nc6ccccc6s5)c4C3)nc2C(=O)O)c(F)c1 > 10 µM
CC(=O)O[C@]1(C(C)=O)CC[C@H]2[C@@H]3CCC4=CC(=O)CCC4=C3[C@@H](c3ccc(N(C)C)cc3)C[C@@]21C > 10 µM
CC(C)N(C[C@H]1O[C@@H](n2cnc3c(N)ncnc32)[C@H](O)[C@@H]1O)[C@H]1C[C@@H](CCc2nc3cc(C(C)(C)C)ccc3[nH]2)C1 > 10 µM
N#Cc1ccnc(Nc2cc(C3CCN(C4COC4)CC3)cc(N3CCC(F)(F)C3)n2)c1 0.106 µM

Per the record, `CCc1cc(Nc2nccc(-c3c(-c4ccc(OC)c(C(=O)Nc5c(F)cccc5F)c4)nc4ccccn34)n2)c(OC)cc1N1CCC(N2CCN(S(C)(=O)=O)CC2)CC1` has IC50 of 3.58 µM

// `CC1(C)CCC(CN2CCN(c3ccc(C(=O)NS(=O)(=O)c4ccc(NCC5CCOCC5)c([N+](=O)[O-])c4)c(Oc4cnc5[nH]ccc5c4)c3)CC2)=C(c2ccc(Cl)cc2)C1` : IC50 value = > 10 µM

Lab note: `N[C@@H]1c2cccnc2[C@H](OC(=O)N2CCC(n3c(=O)[nH]c4ncccc43)CC2)CC[C@H]1c1cccc(F)c1F` gave IC50 of > 10 µM
